Where these numbers come from: paper PMC8721105

Catalogue of Activity scores (robust z-scores) readings, one per entry.
Biological target: TbPEX3–TbPEX19 interaction (Trypanosoma brucei brucei)
Sequence (Q383Q3 entry or part of it, other chains not shown): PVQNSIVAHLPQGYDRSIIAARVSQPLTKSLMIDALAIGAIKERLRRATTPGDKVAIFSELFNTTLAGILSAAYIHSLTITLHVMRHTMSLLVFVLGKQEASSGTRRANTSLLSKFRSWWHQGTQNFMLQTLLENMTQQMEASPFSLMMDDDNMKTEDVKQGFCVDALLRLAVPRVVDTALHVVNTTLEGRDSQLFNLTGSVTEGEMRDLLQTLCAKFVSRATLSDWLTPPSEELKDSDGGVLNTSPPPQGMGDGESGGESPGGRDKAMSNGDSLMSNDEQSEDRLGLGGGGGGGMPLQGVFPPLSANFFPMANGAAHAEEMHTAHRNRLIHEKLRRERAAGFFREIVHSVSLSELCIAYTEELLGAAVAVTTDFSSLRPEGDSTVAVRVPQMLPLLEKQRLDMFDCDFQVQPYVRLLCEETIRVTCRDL
Test: AlphaScreen TbPEX3–TbPEX19 inhibitor screening and dose response
Assay type: binding
Conditions: primary AlphaScreen screen, 10 μM compound
property-name: Activity scores (robust z-scores)

* CC(=O)Nc1ccccc1NC(=O)CN(C)Cc1cnn(C)c1 [Compound 67602110] | 0.7988
* CNC(=O)c1cccc(NC(=O)C2CCOC(C)(C)C2)c1C (centres unmarked) [Compound 31960442] | 0.2733
* O=C(Cc1cccs1)N1C[C@H](O)[C@@H](N2CCCCC2)C1 (racemic) [Compound 41601289] | 0.3122
* COc1cccc(N2CCN(C(=O)c3cccc(-c4cn[nH]c4)c3)CC2)c1 [Compound 92838291] | 1.4019
* CC(C)c1cc(C2CCCN2C(=O)c2ccc(-c3nnn(C)n3)cc2)no1 (centres unmarked) [Compound 54866350] | 2.5166

###

Test system: HepG2 cells
Experiment: Cytotoxicity test on HepG2 cells
Settings: read-out: Human cell cytotoxicity (EC50); HepG2, serial dilutions of up to 200 µM
pEC50: −log10 of the molar value.
property-name: pEC50

• CCn1c2c(c3cc(C(=O)N4CCc5[nH]cnc5C4c4cccnc4)ccc31)CCCC2=O (stereo not shown) [Compound 3] = 4.08

###

Biological target: TbPEX3–TbPEX19 interaction (Trypanosoma brucei brucei)
Experiment: AlphaScreen TbPEX3–TbPEX19 inhibitor screening and dose response
pIC50: −log10 of the molar value.
property-name: pIC50

* Cn1ccnc1CNCCOc1cccc2cccnc12 | 6.30
* COCC1CCCN(S(=O)(=O)N2CCCN(Cc3cccc(F)c3)CC2)C1 (stereo not shown) | 4.43
* CCn1c2c(c3cc(C(=O)N4CCc5[nH]cnc5C4c4cccnc4)ccc31)CCCC2=O (stereo not shown) | 4.84
* c1ccc(-c2ncc(CNCCOc3cccc4cccnc34)cn2)nc1 | 6.00

###

Assay: Cytotoxicity test on HepG2 cells
Settings: human, HepG2 cells, Human cell cytotoxicity (EC50), HepG2, serial dilutions of up to 200 µM
pEC50: −log10 of the molar value.
property-name: pEC50

- CCn1c2c(c3cc(C(=O)N4CCc5[nH]cnc5C4c4cccnc4)ccc31)CCCC2=O (stereo not shown) [Compound 3]: 4.07
- Cn1ccnc1CNCCOc1cccc2cccnc12 [Compound 4]: < 3.70
- COCC1CCCN(S(=O)(=O)N2CCCN(Cc3cccc(F)c3)CC2)C1 (stereo not shown) [Compound 2]: < 3.70
- c1ccc(-c2ncc(CNCCOc3cccc4cccnc34)cn2)nc1 [Compound 1]: < 3.70
